Tested on: H4
procedure summary: Decrease in FYVE-RFP+ vesicle intensity per cell in human H4 cells after 8 hrs relative to control
Format: functional
Design: concentration or dose not given beside the values
For each entry below, report its Activity value.

**Q:** Record CC(C)(c1ccc(OCC2CO2)cc1)c1ccc(OCC2CO2)cc1 (stereo unspecified) : what is its Activity with H4?
**A:** 58.53%

**Q:** Same question, `O=C(Nc1ccccc1)c1cc([N+](=O)[O-])ccc1Cl` this time
**A:** 29.9%

**Q:** Same question, `O=c1cc(N2CCOCC2)oc2c(-c3ccccc3)cccc12` this time
**A:** 11.09%

**Q:** Same question, `CNC(=O)[C@H](Cc1c[nH]c2ccccc12)NC(=O)[C@@H](CC(=O)NO)CC(C)C` this time
**A:** 25.77%

**Q:** Same question, `O=C1Nc2ccccc2/C1=C1/Nc2ccccc2C1=O` this time
**A:** 59.18%

**Q:** Same question, `OCCN(CCO)c1nc(N2CCCCC2)c2nc(N(CCO)CCO)nc(N3CCCCC3)c2n1` this time
**A:** 32.54%

* * *

Test system: H4
procedure summary: Increase in long-lived protein degradation in human H4 cells after 1 hr relative to control
Format: functional
Set-up: concentration or dose not given beside the values
For each entry below, report its Activity value.
Express it in %; write the number only.

**Q:** Record CCCC[C@@H](C=O)NC(=O)[C@H](CC(C)C)NC(=O)OCc1ccccc1 [CALPEPTIN] : what is its Activity with H4?
**A:** 73.3

**Q:** Same question, CN1CCN(CCCN2c3ccccc3Sc3ccc(C(F)(F)F)cc32)CC1 [TRIFLUOPERAZINE] this time
**A:** 76.62

**Q:** Same question, CNC(=O)[C@H](Cc1c[nH]c2ccccc12)NC(=O)[C@@H](CC(=O)NO)CC(C)C [ILOMASTAT] this time
**A:** 129.48

**Q:** Same question, CCCNCC(O)COc1ccccc1C(=O)CCc1ccccc1 (stereo unspecified) [PROPAFENONE] this time
**A:** 114.56

**Q:** Same question, `COC(=O)c1c(C)[nH]c(C)c1C(=O)c1ccccc1Cc1ccccc1` this time
**A:** 101.34

**Q:** Same question, CC(C)(O)[C@H]1O[C@H]2CC[C@@]3(C)[C@@](O)(CC[C@H]4Cc5c([nH]c6ccccc56)[C@@]43C)C2=CC1=O [PAXILLINE] this time
**A:** 100.56

**Q:** Same question, Fc1ccc(C(c2ccc(F)cc2)N2CCN(C/C=C/c3ccccc3)CC2)cc1 [FLUNARIZINE] this time
**A:** 97.33

**Q:** Same question, COc1cc2c3cc1Oc1c(OC)c(OC)cc4c1[C@@H](Cc1ccc(OC(=O)c5ccc([N+](=O)[O-])cc5)c(c1)Oc1ccc(cc1)C[C@@H]3N(C)CC2)N(C)CC4 [E6 BERBAMINE] this time
**A:** 100.96

**Q:** Same question, CC/C(=C(\c1ccccc1)c1ccc(OCCN(C)C)cc1)c1ccccc1 [TAMOXIFEN] this time
**A:** 70.67

**Q:** Same question, `CC[C@H](C)[C@H](NS(=O)(=O)c1cccc2ccccc12)C(=O)N[C@H](C=O)Cc1c[nH]c2ccccc12` this time
**A:** 134.83

**Q:** Same question, CO[C@H]1C[C@@H]2CC[C@@H](C)[C@@](O)(O2)C(=O)C(=O)N2CCCC[C@H]2C(=O)O[C@H]([C@H](C)C[C@@H]2CC[C@@H](O)[C@H](OC)C2)CC(=O)[C@H](C)/C=C(\C)[C@@H](O)[C@@H](OC)C(=O)[C@H](C)C[C@H](C)/C=C/C=C/C=C/1C [SIROLIMUS] this time
**A:** 159.89

**Q:** Same question, CC(C)COCC(CN(Cc1ccccc1)c1ccccc1)N1CCCC1 (stereo unspecified) [BEPRIDIL] this time
**A:** 101.9

**Q:** Same question, CN(C)C[C@H](O)Cn1c2ccc(Br)cc2c2cc(Br)ccc21 [WISKOSTATIN] this time
**A:** 68.51

**Q:** Same question, `CCCNC(=O)[C@H]1O[C@@H]1C(=O)N[C@H](C(=O)N1CCC[C@H]1C(=O)OC)[C@@H](C)CC` this time
**A:** 115.2

**Q:** Same question, O[C@H]1[C@H](O)[C@@H](O)CN2CC[C@H](O)[C@H]12 [CASTANOSPERMINE] this time
**A:** 83.53

**Q:** Same question, CCOC(=O)[C@H]1O[C@@H]1C(=O)N[C@@H](CC(C)C)C(=O)NCCC(C)C [ALOXISTATIN] this time
**A:** 84.82
